Reference source for all entries: ChEMBL document CHEMBL1134724

# studySystem: 5-hydroxytryptamine receptor 1B (Homo sapiens)
# Sequence (P28222 whole entry): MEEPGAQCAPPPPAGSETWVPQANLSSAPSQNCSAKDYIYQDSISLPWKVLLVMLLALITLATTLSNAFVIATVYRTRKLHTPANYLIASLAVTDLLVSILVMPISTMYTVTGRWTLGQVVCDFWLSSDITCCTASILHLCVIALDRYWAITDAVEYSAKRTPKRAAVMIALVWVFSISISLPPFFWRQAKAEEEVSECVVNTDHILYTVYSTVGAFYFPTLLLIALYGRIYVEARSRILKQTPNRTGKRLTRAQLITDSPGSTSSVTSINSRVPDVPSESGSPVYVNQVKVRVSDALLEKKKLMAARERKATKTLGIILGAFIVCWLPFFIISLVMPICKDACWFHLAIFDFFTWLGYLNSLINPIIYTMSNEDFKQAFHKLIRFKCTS
# testMethodNotes: Binding affinity to human cloned 5-hydroxytryptamine 1B receptor in CHO cells using [3H]5-HT as radioligand
readoutName: pKi
The quantity pKi is defined as the negative base-10 logarithm of the molar concentration.

Q. Tell me pKi reported for CC(C)(C)c1ccc(S(=O)(=O)Nc2ccc3nccc(N4CCNCC4)c3c2)cc1
A. 5.80

Q. Entry Cc1sc2ccc(Cl)cc2c1S(=O)(=O)Nc1ccc2nccc(N3CCNCC3)c2c1 needs its pKi filled in; supply it.
A. 6.30

Q. Please indicate pKi recorded for Cc1c(S(=O)(=O)Nc2ccc3nccc(N4CCN(C)CC4)c3c2)sc2ccc(Cl)cc12
A. 6.30

Q. Tell me pKi reported for Cc1cc(N2CCNCC2)c2cc(NS(=O)(=O)c3sc4ccc(Cl)cc4c3C)ccc2n1
A. 5.90
